- tested system: human PTH1 receptor (Homo sapiens, UniProt Q03431)
- Sequence (Q03431 27-593): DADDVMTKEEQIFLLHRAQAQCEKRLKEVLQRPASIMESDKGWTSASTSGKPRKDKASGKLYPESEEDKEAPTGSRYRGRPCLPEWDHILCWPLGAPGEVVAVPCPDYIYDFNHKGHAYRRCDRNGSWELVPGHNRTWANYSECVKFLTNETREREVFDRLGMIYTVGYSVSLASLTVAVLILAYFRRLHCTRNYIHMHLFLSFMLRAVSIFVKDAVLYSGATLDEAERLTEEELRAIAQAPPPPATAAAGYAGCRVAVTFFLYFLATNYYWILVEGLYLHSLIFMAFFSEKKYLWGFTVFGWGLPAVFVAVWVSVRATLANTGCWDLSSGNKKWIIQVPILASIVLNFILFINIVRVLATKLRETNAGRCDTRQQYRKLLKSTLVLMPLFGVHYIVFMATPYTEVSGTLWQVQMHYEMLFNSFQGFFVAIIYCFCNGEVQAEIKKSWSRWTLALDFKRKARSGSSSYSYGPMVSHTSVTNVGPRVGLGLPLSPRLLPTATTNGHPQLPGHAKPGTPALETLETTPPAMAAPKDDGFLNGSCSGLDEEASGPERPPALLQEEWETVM
- experiment description: In vitro cAMP signal activity in HKRK-B7 cells (LLC-PK1 cells overexpressing the human PTH1 receptor)
- Assay type: cell-based
- condition summary: HKRK-B7 cells; compound at 1×10^−3 M; cAMP produced as percentage of that produced by hPTH(1-34) at 100 nM
measured parameter: cAMP production activity (%)

> print(dat)
                                   compound  assay.result
1  COCCN(C(C)=O)c1cc(C)c(/C=C/S(=O)(=O)N2CCC3(CC2)N=C(C2CCC(CCC(F)(F)F)CC2)NC3=O)c(C)c1 (stereo not drawn) [Compound 543]            76
2  Cc1cc(C(=O)N(C)CC(N)=O)cc(C)c1/C=C/S(=O)(=O)N1CCC2(CC1)N=C(c1cccc(C(F)(F)F)c1)NC2=O [Compound 392]            83
3  Cc1cc(C(=O)N2CCN(c3ccc(F)cc3)CC2)ccc1CCS(=O)(=O)N1CCC2(CC1)N=C(c1cccc(C(F)(F)F)c1)NC2=O [Compound 375]            57
4  COCCN(C(N)=O)c1cc(C)c(CCS(=O)(=O)N2CCC3(CC2)N=C(C2CCC(CCC(F)(F)F)CC2)NC3=O)c(C)c1 (stereo not drawn) [Compound 827]            78
5  Cc1cc(C(=O)N2CCN(C)CC2)ccc1/C=C/S(=O)(=O)N1CCC2(CC1)N=C(c1cccc(C(F)(F)F)c1)NC2=O [Compound 216]            84
6  Cc1cc(C(=O)N(C)C)ccc1CCS(=O)(=O)N1CCC2(CC1)N=C(c1cccc(COCC(F)(F)F)c1)NC2=O [Compound 168]            69

---

- tested system: human PTH1 receptor (Homo sapiens, UniProt Q03431)
- experiment description: In vitro cAMP signal activity in HKRK-B7 cells (LLC-PK1 cells overexpressing the human PTH1 receptor)
- Format: cell-based
- condition summary: HKRK-B7 cells; compound at 1×10^−3 M; cAMP produced as percentage of that produced by hPTH(1-34) at 100 nM
Reported cAMP production activity (%) values are given for each entry in this list.
measured parameter: cAMP production activity (%)

> print(dat)
                                   molecule  assay.result
1  CCCCCCCCCC1=NC2(CCN(S(=O)(=O)/C=C/c3c(C)cc(N4C(=O)CNC4=O)cc3C)CC2)C(=O)N1 [Compound 539]            80
2  Cc1cc(OCCCN(C)C)ccc1CCS(=O)(=O)N1CCC2(CC1)N=C(c1cccc(OC(F)(F)F)c1)NC2=O [Compound 295]            95
3  CCCCCCCCCC1=NC2(CCN(S(=O)(=O)CCc3ccc(C(=O)N4CC[C@@H](O)C4)cc3C)CC2)C(=O)N1 [Compound 979]           145
4  Cc1cc(N(C)C(N)=O)cc(C)c1/C=C/[S@TB4](=O)(=O)N1CCC2(CC1)N=C(CCCCCCCCCCC(F)F)NC2=O [Compound 1125]            93
5  Cc1cc(N2CCC2=O)ccc1CCS(=O)(=O)N1CCC2(CC1)N=C(C1CCCCC1)NC2=O [Compound 861]            36
6  CCOCc1cc(NC(C)=O)ccc1CCS(=O)(=O)N1CCC2(CC1)N=C(C1CCC(C)CC1)NC2=O (stereo not shown) [Compound 753]           104
7  Cc1cc2ccc1CCS(=O)(=O)N1CCC3(CC1)N=C(NC3=O)c1cc(cc(C(F)(F)F)c1)OCCCCCO[C@H]1CN(C[C@@H]1O)C2=O [Compound 1425]            32

---

- tested system: human PTH1 receptor (Homo sapiens)
- experiment description: In vitro cAMP signal activity in HKRK-B7 cells (LLC-PK1 cells overexpressing the human PTH1 receptor)
- Type: cell-based
- condition summary: HKRK-B7 cells; compound at 1×10^−3 M; cAMP produced as percentage of that produced by hPTH(1-34) at 100 nM
Rule: True for cAMP production activity (%) not less than 60%, False for anything less.

> print(dat)
                                    compound  class.assignment
 1  Cc1cc(C(=O)O)cc(C)c1CCS(=O)(=O)N1CCC2(CC1)N=C(C1CCC(CCC(F)(F)F)CC1)NC2=O (stereo not shown) [Compound 768]              True
 2  CC(C)COC(=O)Nc1ccc(CCS(=O)(=O)N2CCC3(CC2)N=C(C2CCCCC2)NC3=O)c(C(F)(F)F)c1 [Compound 661]             False
 3  CC(=O)Nc1ccc(CCS(=O)(=O)N2CCC3(CC2)N=C(C2CCCCC2)NC3=O)cc1 [Compound 167]             False
 4  Cc1cc(N(C)C(N)=O)cc(C)c1CCS(=O)(=O)N1CCC2(CC1)N=C(CCCCCCCCC(F)(F)F)NC2=O [Compound 1046]              True
 5  CC(=O)N(CCO)c1cc(C)c(CCS(=O)(=O)N2CCC3(CC2)N=C(c2ccc(F)c(C(F)(F)F)c2)NC3=O)c(C)c1 [Compound 794]              True
 6  Cc1cc(C(=O)N(C)C)ccc1CCS(=O)(=O)N1CCC2(CC1)N=C(COc1ccc(F)cc1)NC2=O [Compound 125]              True
 7  COC(=O)NCCc1ccc(/C=C/S(=O)(=O)N2CCC3(CC2)N=C(C2CCCCC2)NC3=O)cc1 [Compound 566]             False
 8  COCCN(C(N)=O)c1cc(C)c(/C=C/S(=O)(=O)N2CCC3(CC2)N=C(C2CCC(CCC(F)(F)F)CC2)NC3=O)c(C)c1 (stereo not shown) [Compound 725]             False
 9  Cc1cc(N(CCO)C(=O)C(C)C)ccc1CCS(=O)(=O)N1CCC2(CC1)N=C(c1cccc(OC(F)(F)F)c1)NC2=O [Compound 929]              True
10  Cc1cc(C(N)=O)cc(C)c1/C=C/S(=O)(=O)N1CCC2(CC1)N=C(c1cccc(OC(F)(F)F)c1)NC2=O [Compound 962]              True
11  Cc1cc(OC[C@H](O)CO)cc(C)c1CCS(=O)(=O)N1CCC2(CC1)N=C(c1cccc(OCCCC(F)(F)C(F)(F)F)c1)NC2=O [Compound 1328]              True
12  Cc1cc2ccc1CCS(=O)(=O)N1CCC3(CC1)N=C(NC3=O)c1cc(cc(C(F)(F)F)c1)OCC/C=C/CNC(=O)CN(C)C2=O [Compound 1422]             False
13  CCOc1c(N(C)c2cc(C)c(CCS(=O)(=O)N3CCC4(CC3)N=C([C@H]3CC[C@H](C)CC3)NC4=O)c(C)c2)c(=O)c1=O [Compound 1367]             False

---

- tested system: UniProt:Q03431
- Sequence (Q03431 27-593): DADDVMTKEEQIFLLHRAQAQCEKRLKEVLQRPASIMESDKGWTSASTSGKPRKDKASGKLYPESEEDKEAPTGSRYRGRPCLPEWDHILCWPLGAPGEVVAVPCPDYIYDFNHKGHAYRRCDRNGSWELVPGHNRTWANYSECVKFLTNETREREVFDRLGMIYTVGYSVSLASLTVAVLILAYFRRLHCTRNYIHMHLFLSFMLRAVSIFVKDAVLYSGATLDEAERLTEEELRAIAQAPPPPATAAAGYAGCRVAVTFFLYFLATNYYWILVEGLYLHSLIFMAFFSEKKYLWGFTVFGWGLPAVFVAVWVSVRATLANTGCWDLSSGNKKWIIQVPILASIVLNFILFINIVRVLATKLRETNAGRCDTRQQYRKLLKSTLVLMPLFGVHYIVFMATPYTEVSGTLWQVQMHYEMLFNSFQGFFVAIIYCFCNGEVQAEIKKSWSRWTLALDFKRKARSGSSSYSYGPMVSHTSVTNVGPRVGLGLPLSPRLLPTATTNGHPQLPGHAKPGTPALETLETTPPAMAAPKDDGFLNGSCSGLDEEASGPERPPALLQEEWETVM
- experiment description: In vitro cAMP signal activity in HKRK-B7 cells (LLC-PK1 cells overexpressing the human PTH1 receptor)
- Type: cell-based
- condition summary: HKRK-B7 cells; compound at 1×10^−3 M; cAMP produced as percentage of that produced by hPTH(1-34) at 100 nM
measured parameter: cAMP production activity (%)

> print(dat)
                                   molecule            measured.parameter  u  assay.result
1  Cc1cc(CN)ccc1CCS(=O)(=O)N1CCC2(CC1)N=C(C1CCC(CCC(F)(F)F)CC1)NC2=O.O=C(O)C(F)(F)F (stereo not shown) [Compound 1284]  cAMP production activity (%)  %           2.5
2  Cc1cc(C(=O)N2CC(O)C2)cc(C)c1CCS(=O)(=O)N1CCC2(CC1)N=C(c1cccc(OC(F)(F)F)c1)NC2=O [Compound 965]  cAMP production activity (%)  %           115
3  Cc1cc2ccc1CCS(=O)(=O)N1CCC3(CC1)N=C(NC3=O)c1cc(cc(C(F)(F)F)c1)OCCOCCNC(=O)CN(C)C2=O [Compound 1440]  cAMP production activity (%)  %            10
4  Cc1cc(C(=O)N(C)C)ccc1CCS(=O)(=O)N1CCC2(CC1)N=C(c1ccc(OC(F)F)cc1)NC2=O [Compound 118]  cAMP production activity (%)  %            73
5  Cc1cc(C(=O)N2CCC(O)CC2)cc(C)c1CC(F)(F)S(=O)(=O)N1CCC2(CC1)N=C(c1cccc(OC(F)(F)F)c1)NC2=O [Compound 1101]  cAMP production activity (%)  %           110
6  Nc1ccc(CCS(=O)(=O)N2CCC3(CC2)N=C(C2CCCCC2)NC3=O)c(C(F)(F)F)c1 [Compound 314]  cAMP production activity (%)  %            68
7  Cc1cc(N2C(=O)CC[C@H]2CO)ccc1CCS(=O)(=O)N1CCC2(CC1)N=C(c1ccc(F)c(C(F)(F)F)c1)NC2=O [Compound 858]  cAMP production activity (%)  %           100
